// Plasma Stability (% remaining, 6 h/24 h) Mouse lookup, one value per entry
- EXPERIMENT NOTES: Plasma stability assay, mouse plasma
- Format: in vitro ADME
- STUDY CONDITIONS: 37° C., 6 h
REPORTED PROPERTY: Plasma Stability (% remaining, 6 h/24 h) Mouse (%)

> print(dat)
                         compound.structure  unit  reported.result
1  CC(=O)Nc1cccc(Cn2nc(C)c(NC(=O)c3ccc(COc4ccc(C(F)(F)F)cc4C)cc3)c2C)c1     %              1.6
2  CNC(=O)c1cccc(Cn2nc(C)c(NC(=O)c3ccc(COc4ccc(C(F)(F)F)cc4)cc3)c2C)c1     %               91
3  CNC(=O)c1cccc(Cn2nc(C)c(NC(=O)c3ccc(COc4ccc(C(F)(F)F)cc4C)cc3)c2C)c1     %               88
4  CC(=O)Nc1cccc(Cn2nc(C)c(NC(=O)c3ccc(COc4ccc(C(F)(F)F)cc4)cc3)c2C)c1     %              2.1

* * *

Quick list: solubility at 48 h per entry.
- EXPERIMENT NOTES: Thermodynamic solubility assay
- Type: physicochemical
- STUDY CONDITIONS: aqueous buffer, thermodynamic from solid, DPBS pH=7.4, 48 h, ambient temperature
- Description: Briefly, a saturated solution was made by adding DPBS to the solid compound. The mixture was shaken at 200 rpm for 48 h in a MaxQ 6000 orbital shaker at ambient temperature to allow equilibrium between the solid and dissolved compound. The suspension was then filtered through a 0.45 μm PVDF syringe filter and the filtrate was collected for analysis using UV spectrometry (SpectraMax M5e, Molecular Devices) at λ=240 nm.
REPORTED PROPERTY: solubility at 48 h (µM)

> print(dat)
                                   compound  unit  reported.result
1  CNC(=O)c1cccc(Cn2nc(C)c(NC(=O)c3ccc(COc4ccc(C(F)(F)F)cc4)cc3)c2C)c1 [Compound D9c]    µM             67.3
2  CNC(=O)c1cc(Cn2nc(C)c(NC(=O)c3ccc(COc4ccc(C(F)(F)F)cc4C)cc3)c2C)ccn1 [Compound E2b]    µM              211
3  CNC(=O)c1cccc(Cn2nc(C)c(NC(=O)c3ccc(COc4ccc(C(F)(F)F)cc4C)cc3)c2C)c1 [Compound D10]    µM              166

* * *

- EXPERIMENT NOTES: Plasma stability assay, mouse plasma
- Assay type: in vitro ADME
- STUDY CONDITIONS: 37° C., 24 h
REPORTED PROPERTY: Plasma Stability (% remaining, 6 h/24 h) Mouse

> print(dat)
                                   compound  reported.result
1  CNC(=O)c1ccnc(Cn2nc(C)c(NC(=O)c3ccc(COc4ccc(C(F)(F)F)cc4)cc3)c2C)c1 [Compound E4a]            —/98%
2  CNC(=O)c1ccnc(Cn2nc(C)c(NC(=O)c3ccc(COc4ccc(C(F)(F)F)cc4C)cc3)c2C)c1 [Compound E4b]            —/99%
3  CNC(=O)c1cccc(Cn2nc(C)c(NC(=O)c3ccc(COc4ccc(C(F)(F)F)cc4)cc3)c2C)c1 [Compound D9c]              77%
4  CC(=O)Nc1cccc(Cn2nc(C)c(NC(=O)c3ccc(COc4ccc(C(F)(F)F)cc4)cc3)c2C)c1 [Compound D11]             0.1%

* * *

The following compounds are listed with their measured pEC50 values.
- Test system: Panc-1 cells
- EXPERIMENT NOTES: Cell viability assay (MTT) in Panc-1 cells
- Assay type: cell-based
- STUDY CONDITIONS: Homo sapiens, antiproliferative activity, 72 h
pEC50: −log10 of the molar value.
REPORTED PROPERTY: pEC50

> print(dat)
                         compound.structure  target.system  comparative.sign  reported.result
1  Cc1nn(Cc2ccc(C(N)=O)cc2)c(C)c1NC(=O)c1ccc(COc2ccccc2)cc1   Panc-1 cells                 <             4.00
2  CNC(=O)c1cccc(Cn2nc(C)c(NC(=O)c3ccc(COc4ccccc4C#N)cc3)c2C)c1   Panc-1 cells                 =             5.07
3  CNC(=O)c1cccc(Cn2nc(C)c(NC(=O)c3ccc(COc4cccc(C)c4)cc3)c2C)c1   Panc-1 cells                 =             6.25
4  CNC(=O)c1cccc(Cn2nc(C)c(NC(=O)c3ccc(COc4ccc(OC)cc4)cc3)c2C)c1   Panc-1 cells                 =             4.32

* * *

- Tested on: Panc-1 cells
- EXPERIMENT NOTES: Cell viability assay (MTT) in Panc-1 cells
- Assay type: cell-based
- STUDY CONDITIONS: Homo sapiens, antiproliferative activity, 72 h
log10 of EC50 values for the molecules below.
REPORTED PROPERTY: log10 of EC50 (log10 of the value in µM)

> print(dat)
                                    molecule  reported.result
 1  CNC(=O)c1cccc(Cn2nc(C)c(NC(=O)c3ccc(COc4cccc(F)c4)cc3)c2C)c1 [Compound D6b]            -0.68
 2  CNC(=O)c1cccc(Cn2nc(C)c(NC(=O)c3ccc(C(=O)Nc4ccccc4)cc3)c2C)c1 [Compound C4]             1.71
 3  Cc1nn(Cc2ccc(N)cc2)c(C)c1NC(=O)c1ccc(COc2ccccc2)cc1 [Compound A6a]             1.64
 4  Cc1nn(Cc2cccc(C(N)=O)c2)c(C)c1NC(=O)c1ccc(COc2ccccc2)cc1 [Compound A2b]             1.04
 5  CNC(=O)c1ccccc1Cn1nc(C)c(NC(=O)c2ccc(COc3ccccc3)cc2)c1C [Compound A3c]             1.15
 6  CNC(=O)c1cccc(Cn2nc(C)c(NC(=O)c3ccc(COc4cccc(Cl)c4)cc3)c2C)c1 [Compound D5b]            -1.42
 7  CNC(=O)c1cccc(Cn2nc(C)c(NC(=O)c3ccc(COc4cccc(OC)c4)cc3)c2C)c1 [Compound D4b]             0.79
 8  CNC(=O)c1cccc(Cn2nc(C)c(NC(=O)c3ccc(COc4ccccc4)cc3)c2C)c1 [Compound A3b]             0.72
 9  CNC(=O)c1cccc(Cn2nc(C)c(NC(=O)c3ccc(OCc4ccccc4)cc3)c2C)c1 [Compound C5]             0.78
10  Cc1nn(Cc2cccc([N+](=O)[O-])c2)c(C)c1NC(=O)c1ccc(COc2ccccc2)cc1 [Compound A5b]             1.30
11  CNC(=O)c1cccc(Cn2nc(C)c(NC(=O)c3ccc(CCc4ccccc4)cc3)c2C)c1 [Compound C3]            -0.12
12  CNC(=O)c1cccc(Cn2nc(C)c(NC(=O)c3ccc(COc4ccc(C)cc4)cc3)c2C)c1 [Compound D3c]             1.11
13  CNC(=O)c1cccc(Cn2nc(C)c(NC(=O)c3ccc(COc4ccccc4Cl)cc3)c2C)c1 [Compound D5a]             1.00
14  CNC(=O)c1cccc(Cn2nc(C)c(NC(=O)c3ccc(COc4ccc(F)cc4)cc3)c2C)c1 [Compound D6c]             0.84
15  Cc1nn(Cc2cccc(N)c2)c(C)c1NC(=O)c1ccc(COc2ccccc2)cc1 [Compound A6b]             0.99
16  CNC(=O)c1cccc(Cn2nc(C)c(NC(=O)c3ccc(COc4cccc(C(F)(F)F)c4)cc3)c2C)c1 [Compound D9b]            -0.12
17  Cc1nn(Cc2cccc(C(=O)NC(C)C)c2)c(C)c1NC(=O)c1ccc(COc2ccccc2)cc1 [Compound A4c]             0.15
18  CC(=O)Nc1ccccc1Cn1nc(C)c(NC(=O)c2ccc(COc3ccccc3)cc2)c1C [Compound A7c]             1.49
19  Cc1nn(Cc2ccccc2[N+](=O)[O-])c(C)c1NC(=O)c1ccc(COc2ccccc2)cc1 [Compound A5c]             0.72
20  Cc1nn(Cc2ccc([N+](=O)[O-])cc2)c(C)c1NC(=O)c1ccc(COc2ccccc2)cc1 [Compound A5a]             1.36
21  CNC(=O)c1cccc(Cn2nc(C)c(NC(=O)c3ccc(COc4ccccc4OC)cc3)c2C)c1 [Compound D4a]             1.40
22  CNC(=O)c1cccc(Cn2nc(C)c(NC(=O)c3ccc(COc4ccccc4C)cc3)c2C)c1 [Compound D3a]            -0.21
23  CNC(=O)c1cccc(Cn2nc(C)c(NC(=O)c3ccc(COc4ccc(C(F)(F)F)cc4)cc3)c2C)c1 [Compound D9c]            -0.68
24  CC(=O)Nc1cccc(Cn2nc(C)c(NC(=O)c3ccc(COc4ccccc4)cc3)c2C)c1 [Compound A7b]             1.08
25  CNC(=O)c1cccc(Cn2nc(C)c(NC(=O)c3ccc(COc4ccc(C#N)cc4)cc3)c2C)c1 [Compound D7c]             1.34
26  Cc1nn(Cc2cccc(C(=O)N(C)C)c2)c(C)c1NC(=O)c1ccc(COc2ccccc2)cc1 [Compound A4a]             0.08
27  Cc1nn(Cc2ccccc2N)c(C)c1NC(=O)c1ccc(COc2ccccc2)cc1 [Compound A6c]             1.34
28  CCNC(=O)c1cccc(Cn2nc(C)c(NC(=O)c3ccc(COc4ccccc4)cc3)c2C)c1 [Compound A4b]             0.20
29  CNC(=O)c1cccc(Cn2nc(C)c(NC(=O)c3ccc(COc4ccc(Cl)cc4)cc3)c2C)c1 [Compound D5c]             0.30
